test system: morningglory; experiment: Test C pre-/postemergence herbicide test; assay type: in vivo, Ipomoea coccinea; details: Preemergence, 31 g ai/ha; scale 0 to 100, 0 is no effect and 100 is complete control
Some molecules, each annotated with its measured Morningglory plant response rating.
I only need the number, thanks.

// below: answered molecules
| Molecule | Measured on | Morningglory plant response rating |
| --- | --- | --- |
| CN1CC(c2ccc(C(F)(F)F)cc2)C(C(=O)Nc2ccccc2F)C1=O (centres unmarked) | morningglory | 5 |
| CN1CC(c2ccc(F)cc2)C(C(=O)Nc2cccc(F)c2F)C1=O (centres unmarked) | morningglory | 0 |
| O=C1NCC(c2cccc(Br)c2)C1C(=O)Nc1cccc(F)c1F (centres unmarked) | morningglory | 0 |
| O=C1NCC(c2ccc(C(F)(F)F)c(F)c2)C1C(=O)Nc1ccccc1F (racemic) | morningglory | 5 |
| O=C1NCC(c2cccc(OC(F)F)c2)C1C(=O)Nc1ccc(F)c(F)c1F (centres unmarked) | morningglory | 0 |
| O=C1NCC(c2cccc(C(F)(F)F)c2)C1C(=O)Nc1ccccc1Cl (racemic) | morningglory | 0 |
| O=C1NCC(c2cccc(OC(F)F)c2)C1C(=O)Nc1cccc(F)c1F (centres unmarked) | morningglory | 0 |

// moving on: another record for Morningglory plant response rating
Given the molecule O=C1NCC(c2ccc(C(F)(F)F)nc2)C1C(=O)Nc1cccc(F)c1F (racemic) , write its reported Morningglory plant response rating.
0

* * *

Catalogue of Plant response rating, Wheat readings, one per entry.
tested on: wheat; experiment: Test A pre-/postemergence herbicide test; assay type: in vivo, Triticum aestivum; conditions: Postemergence, 125 g ai/ha; 0 to 100 scale, 0 no effect, 100 complete control
# answer = number (no unit)

| Compound | Obs value |
| --- | --- |
| O=C1NCC(c2ccc(F)c(Cl)c2)C1C(=O)Nc1cccc(F)c1F (stereo not shown) [Compound 59] | 0 |
| O=C1NCC(c2cccc(Br)c2)C1C(=O)Nc1ccccc1F (stereo not shown) [Compound 66] | 0 |
| O=C1NCC(c2cccc(Br)c2)C1C(=O)Nc1cccc(F)c1F (stereo not shown) [Compound 64] | 0 |

Name the recorded Plant response rating, Wheat of the item N#Cc1cccc(C2CNC(=O)C2C(=O)Nc2cccc(F)c2F)c1 (racemic) [Compound 73] in your answer.
0

Output Plant response rating, Wheat of O=C1NCC(c2cccc(C(F)(F)F)c2)C1C(=O)Nc1nncs1 (racemic) [Compound 111]
0

Return the recorded Plant response rating, Wheat value; entry: COc1cc(C2CNC(=O)C2C(=O)Nc2ccccc2Cl)ccc1F (racemic) [Compound 133]
0

Answer with the recorded Plant response rating, Wheat of O=C1NCC(c2ccccc2)C1C(=O)Nc1cccc(F)c1F (stereo not shown) [Compound 65] only.
0

Given the compound O=C1NCC(c2ccc(F)c(F)c2)C1C(=O)Nc1ccccc1Br (stereo not shown) [Compound 55] , write its reported Plant response rating, Wheat.
0

In one line, give reported Plant response rating, Wheat of the entry O=C1NCC(c2ccc(F)c(F)c2)C1C(=O)Nc1cccc2c1OC(F)(F)O2 (stereo not shown) [Compound 57] .
0

# return recorded Plant response rating, Wheat for entry O=C1NCC(c2ccc(F)c(C(F)(F)F)c2)C1C(=O)Nc1ccccc1C(F)(F)F (racemic) [Compound 78]
40

Identify measured Plant response rating, Wheat associated with O=C1NCC(c2cccc(OC(F)(F)C(F)F)c2)C1C(=O)Nc1ccccc1F (racemic) [Compound 121]
50

Please supply the value of reported Plant response rating, Wheat for the item O=C1NCC(c2ccc(F)c(F)c2)C1C(=O)Nc1cccc(F)c1 (racemic) [Compound 12]
0

Entry CC1NC(=O)C(C(=O)Nc2ccccc2C(F)(F)F)C1c1ccc(F)c(F)c1 (mixture of isomers) [Compound 10] needs its Plant response rating, Wheat filled in; supply it.
0

* * *

system: velvetleaf; assay: Test C pre-/postemergence herbicide test; format: in vivo, Abutilon theophrasti; details: Preemergence, 31 g ai/ha; scale 0 to 100, 0 is no effect and 100 is complete control
Test readout: Velvetleaf plant response rating
Response field accepts a number only; no unit should be typed.

| Molecule | Measured on | Velvetleaf plant response rating |
| --- | --- | --- |
| CN1CC(c2ccc(F)cc2)C(C(=O)Nc2cccc(F)c2F)C1=O (centres unmarked) [Compound 271] | velvetleaf | 0 |
| O=C1NCC(c2cccc(Cl)c2)C1C(=O)Nc1cccc(F)c1F (racemic) [Compound 275] | velvetleaf | 0 |
| CN1CC(c2cccc(C(F)(F)F)c2)C(C(=O)Nc2ccccc2F)C1=O (centres unmarked) [Compound 277] | velvetleaf | 0 |

Entry O=C(Nc1ccccc1F)C1C(=S)NCC1c1cccc(C(F)(F)F)c1 (centres unmarked) [Compound 274] needs its Velvetleaf plant response rating filled in; supply it.
0

Read the entry O=C1NCC(c2ccc(C(F)(F)F)nc2)C1C(=O)Nc1ccccc1F (racemic) [Compound 262] and write its reported Velvetleaf plant response rating.
0

Determine its reported Velvetleaf plant response rating: O=C1NCC(c2cccc(C(F)(F)F)c2)C1C(=O)Nc1cccc(F)c1F (centres unmarked) [Compound 241]
0

Please look at this molecule and report its Velvetleaf plant response rating: O=C1NCC(c2ccc(C(F)(F)F)nc2)C1C(=O)Nc1cccc(F)c1F (racemic) [Compound 263]
5

Determine from records and report Velvetleaf plant response rating for O=C1NCC(c2cccc(OC(F)(F)F)c2)C1C(=O)Nc1cccc(F)c1F (centres unmarked) [Compound 68]
10

* * *

system: velvetleaf; test: Test C pre-/postemergence herbicide test; assay type: in vivo, Abutilon theophrasti; settings: Postemergence, 62 g ai/ha; scale 0 (no effect) to 100 (complete control)
Test readout: Plant response rating, Velvetleaf
Keep it simple and answer with nothing but the number.

Some solved cases for reference:
| Compound | Obs value |
| --- | --- |
| O=C1NCC(c2cccc(C(F)(F)F)c2)C1C(=O)Nc1ccc(F)cc1F (racemic) | 0 |
| O=C1NCC(c2ccc(C(F)(F)F)cc2)C1C(=O)Nc1ccc(F)c(F)c1F (stereo not drawn) | 15 |
| CN1CC(c2ccc(F)cc2)C(C(=O)Nc2cccc(F)c2F)C1=O (stereo not drawn) | 5 |

Assign Plant response rating, Velvetleaf to the following record: O=C1NCC(c2cccc(OC(F)F)c2)C1C(=O)Nc1cccc(F)c1F (stereo not drawn)
55

Answer with the recorded Plant response rating, Velvetleaf for the compound listed here: O=C1NCC(c2cccc(Br)c2)C1C(=O)Nc1cccc(F)c1F (stereo not drawn)
5

Identify the reported Plant response rating, Velvetleaf for the following entry. O=C1NCC(c2cc(F)cc(F)c2)C1C(=O)Nc1ccc(F)cc1F (racemic)
0

* * *

system: lambsquarters; assay: Test C pre-/postemergence herbicide test; type: in vivo, Chenopodium album; settings: Preemergence, 125 g ai/ha; scale 0 to 100 (0 no effect, 100 complete control)
Test readout: Plant response rating, Lambsquarters
In your answer, state the number alone without any accompanying words.

Answered examples (4):
| Molecule | Measured on | Test readout | Obs value |
| --- | --- | --- | --- |
| O=C1NCC(c2cc(F)cc(F)c2)C1C(=O)Nc1ccc(F)cc1F (racemic) | lambsquarters | Plant response rating, Lambsquarters | 0 |
| Cc1ccccc1NC(=O)C1C(=O)NCC1c1cc(F)c(F)c(F)c1 (racemic) | lambsquarters | Plant response rating, Lambsquarters | 0 |
| O=C1NCC(c2ccc(F)cc2)C1C(=O)Nc1cccc(F)c1F (racemic) | lambsquarters | Plant response rating, Lambsquarters | 85 |
| O=C1NCC(c2cc(F)c(F)c(F)c2)C1C(=O)Nc1ccccc1F (racemic) | lambsquarters | Plant response rating, Lambsquarters | 80 |

Identify measured Plant response rating, Lambsquarters obtained with lambsquarters for O=C1NCC(c2cccc(Br)c2)C1C(=O)Nc1ccccc1F (centres unmarked) .
0

* * *

tested on: ragweed; test: Test A pre-/postemergence herbicide test; format: in vivo, Ambrosia elatior; details: preemergence; 500 g ai/ha; 0 to 100 scale, 0 is no effect and 100 is complete control
hey, just use Yes if measured Plant response rating, Ragweed is less than 20, otherwise No

Below, 5 compounds whose answers are already recorded.
| Compound | Qualitative label |
| --- | --- |
| O=C1NCC(c2cccc(C(F)F)c2)C1C(=O)Nc1cccc(F)c1F (racemic) | No |
| CSc1cccc(C2CNC(=O)C2C(=O)Nc2ccc(F)cc2F)c1 (stereo not shown) | Yes |
| O=C1NCC(c2ccc(C(F)(F)F)cc2)C1C(=O)Nc1ccccc1Cl (stereo not shown) | No |
| Cc1ccc(C2CNC(=O)C2C(=O)Nc2ccccc2Cl)cc1 (racemic) | No |
| O=C1NCC(c2cccc(OC(F)F)c2)C1C(=O)Nc1ccccc1F (stereo not shown) | No |

API: the following record is the query input.
Does the reported Plant response rating, Ragweed of Cc1ccc(C2CNC(=O)C2C(=O)Nc2cccc(F)c2)cc1 (racemic) stay below 20?
No

* * *

test system: pigweed; assay: Test A pre-/postemergence herbicide test; format: in vivo, Amaranthus retroflexus; conditions: Postemergence, 500 g ai/ha; 0 to 100 scale (0 no effect, 100 complete control)
Test readout: Plant response rating, Pigweed

| Molecule | Obs value |
| --- | --- |
| O=C1NCC(c2cc3ccccc3s2)C1C(=O)Nc1cccc(F)c1F (stereo not shown) | 0 |
| O=C1NCC(c2ccc(F)c(F)c2)C1C(=O)Nc1cccc(F)c1F (racemic) | 30 |
| O=C1NCC(c2cccc(Br)c2)C1C(=O)Nc1cccc(F)c1F (stereo not shown) | 30 |
| COc1ccc(C2CNC(=O)C2C(=O)Nc2ccccc2C(F)(F)F)cc1C(F)(F)F (stereo not shown) | 0 |
| O=C1NCC(c2ccc(Cl)s2)C1C(=O)Nc1ccccc1C(F)(F)F (stereo not shown) | 0 |
| O=C1NCC(c2ccc(Cl)c(C(F)(F)F)c2)C1C(=O)Nc1cccc(F)c1F (racemic) | 80 |
| O=C1NCC(c2ccc(F)c(F)c2)C1C(=O)Nc1ccc[nH]c1=O (racemic) | 0 |
| O=C1NCC(c2cccc(Cl)c2)C1C(=O)Nc1cccc(F)c1F (racemic) | 40 |

With pigweed as the test system, provide measured Plant response rating, Pigweed for this molecule: N#Cc1ccccc1NC(=O)C1C(=O)NCC1c1ccc(Cl)c(Cl)c1 (racemic)
0

Please look at O=C1NCC(c2ccc(F)c(F)c2)C1C(=O)Nc1cccc(F)c1C(F)(F)F (stereo not shown) and tell me its recorded Plant response rating, Pigweed on pigweed.
20

Look up and report measured Plant response rating, Pigweed (pigweed) for the following molecule: O=C1NCC(c2cccc(OC(F)F)c2)C1C(=O)Nc1ccc(F)c(F)c1F (stereo not shown)
50

Fetch value of Plant response rating, Pigweed on pigweed for O=C1NC[C@@H](c2ccc(F)c(F)c2)[C@@H]1C(=O)Nc1ccccc1F .
0

State Plant response rating, Pigweed (pigweed) of O=C1NCC(c2ccc(OC(F)(F)F)cc2)C1C(=O)Nc1cccc(F)c1F (racemic) .
0

Fill in Plant response rating, Pigweed for O=C1NCC(c2ccc(Cl)cc2)C1C(=O)Nc1ccccc1F (racemic) tested with pigweed.
20

Give Plant response rating, Pigweed for this entry on pigweed: O=C1NCC(c2cccc(F)c2)C1C(=O)Nc1ccccc1F (racemic)
0

Provide Plant response rating, Pigweed, tested on pigweed, for CC1NC(=O)C(C(=O)Nc2ccccc2F)C1c1ccc(F)c(F)c1 (mixture of isomers) .
0

System pigweed. Read-out Plant response rating, Pigweed. Item O=C1NCC(c2cccc(C(F)(F)F)c2)C1C(=O)Nc1cccc(Cl)c1F (stereo not shown) . Report value.
20

Report value: Plant response rating, Pigweed, system: pigweed, molecule: O=C1NCC(c2cc(F)cc(F)c2)C1C(=O)Nc1ccc(F)cc1F (racemic)
10

Given CC(C)(C)OC(=O)Nc1cccc(C2CNC(=O)C2C(=O)Nc2cccc(F)c2F)c1 (stereo not shown) , report its Plant response rating, Pigweed on pigweed.
20
